# System: Pyricularia oryzae
# Assay type: in vivo
# Test parameters: individual active compound, 4 ppm in the spray liquor; protective, inoculated next day, rated after 6 days
Please respond with reported Efficacy in % of the untreated control for every item in the list.

Input line: Give recorded Efficacy in % of the untreated control with Pyricularia oryzae for the following molecule: C[C@H](Nc1c(-c2c(F)cc(F)cc2F)c(Cl)nc2ncnn12)C(F)(F)F
Output line: 52 % of the untreated control

Input line: Give recorded Efficacy in % of the untreated control with Pyricularia oryzae for the following molecule: CC1CCN(c2c(-c3c(F)cc(F)cc3F)c(Cl)nc3ncnn23)CC1
Output line: 52 % of the untreated control

Input line: Give recorded Efficacy in % of the untreated control with Pyricularia oryzae for the following molecule: CNC(=O)/C(=N/OC)c1ccccc1CO/N=C(C)/C(=N/OC)C(/C)=N/OC
Output line: 28 % of the untreated control

Further cases:
Input line: Give recorded Efficacy in % of the untreated control with Pyricularia oryzae for the following molecule: CC1CCN(c2c(-c3c(F)cccc3Cl)c(Cl)nc3ncnn23)CC1
Output line: 28 % of the untreated control

Source listed as patent US20060063786A1.
